Counter-ions that a name gives are not always drawn.
Mark True for reported melting point of 200 °C or greater; mark False for anything smaller.

{"Molecule": "COc1cccc([C@H]2CCCc3ccccc3[C@]2(O)CCCN(C)C)c1 (racemic) (as salt: oxalate)", "Group": "False"}
{"Molecule": "CCN(CC)CCCC1(O)c2ccccc2CCCC1c1ccc(F)cc1F (racemic) (as salt: oxalate)", "Group": "False"}
{"Molecule": "Cc1ccc(C2CCCc3ccccc3C2(O)CCCN2CCCC2)cc1 (racemic)", "Group": "False"}
{"Molecule": "CC(C)NCCCC1(O)c2ccccc2CCCC1c1cnc2ccccc2c1 (racemic)", "Group": "False"}
{"Molecule": "OC1(CCCN2CCCCC2)c2ccccc2CCCC1c1ccc(F)cc1F (racemic) (as salt: oxalate)", "Group": "True"}
{"Molecule": "COc1ccc(C2CCCc3ccccc3C2(O)CCCN2CCN(C(C)=O)CC2)cc1 (racemic)", "Group": "False"}
{"Molecule": "CCN(CC)CCCC1(O)c2ccccc2CCCC1c1ccc(O)cc1 (racemic)", "Group": "False"}
{"Molecule": "CCN(CC)CCCC1(O)c2ccccc2CCCC1c1ccc(Cl)cc1 (racemic) (as salt: HCl)", "Group": "False"}
{"Molecule": "CN(C)CCCC1(O)c2ccccc2CCCC1c1cncnc1 (racemic)", "Group": "False"}
{"Molecule": "COCCN(C)CCCC1(O)c2ccccc2CCCC1c1ccc(OC)cc1 (racemic) (as salt: oxalate)", "Group": "False"}
{"Molecule": "CNCCCC1(O)c2ccccc2CCCC1c1ccc(C)cc1 (racemic) (as salt: oxalate)", "Group": "True"}
{"Molecule": "COCCN(C)CCCC1(O)c2ccccc2CCCC1c1ccc(C)cc1 (racemic) (as salt: oxalate)", "Group": "False"}
{"Molecule": "CN(C)CCCC1(O)c2ccccc2CCCC1c1ccc(Cl)cc1 (single isomer, unassigned) (as salt: oxalate)", "Group": "False"}
{"Molecule": "CC(=O)N1CCN(CCCC2(O)c3ccccc3CCCC2c2ccc(C)cc2)CC1 (racemic)", "Group": "True"}
{"Molecule": "COc1ccc(C2CCCc3ccccc3C2(O)CCCN(C)C)cc1 (racemic) (as salt: oxalate)", "Group": "False"}
{"Molecule": "CN(C)CCCC1(O)c2ccccc2CCCC1c1ccccc1 (single isomer, unassigned) (as salt: oxalate) [Compound 105]", "Group": "False"}
{"Molecule": "CNCCCC1(O)c2ccccc2CCCC1c1ccccc1 (racemic) (as salt: oxalate)", "Group": "False"}
{"Molecule": "CNCCCC1(O)c2ccccc2CCCC1c1cccc(C)c1 (racemic) (as salt: oxalate)", "Group": "False"}
{"Molecule": "Cc1ccc(C2CCCc3ccccc3C2(O)CCCN(C)C)cc1 (racemic) (as salt: oxalate)", "Group": "False"}
{"Molecule": "CNCCCC1(O)c2ccccc2CCCC1c1ccc(OC)cc1 (racemic) (as salt: oxalate)", "Group": "False"}

---

Study Target: GHS1A-receptor (Homo sapiens, UniProt Q92847)
Construct: expressed in transfected cells; host or cells: HEK293
Sequence (Q92847 whole entry): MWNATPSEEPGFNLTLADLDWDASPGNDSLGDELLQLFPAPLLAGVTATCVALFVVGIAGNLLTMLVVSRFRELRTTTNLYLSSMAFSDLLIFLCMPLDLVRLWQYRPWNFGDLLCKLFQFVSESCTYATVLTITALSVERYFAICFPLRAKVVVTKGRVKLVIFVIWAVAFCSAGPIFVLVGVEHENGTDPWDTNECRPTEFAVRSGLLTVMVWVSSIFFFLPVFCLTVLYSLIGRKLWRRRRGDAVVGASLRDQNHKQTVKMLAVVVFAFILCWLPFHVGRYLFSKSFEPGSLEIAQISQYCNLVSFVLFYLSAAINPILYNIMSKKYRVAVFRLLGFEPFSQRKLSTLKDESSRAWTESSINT
Method: Ghrelin-agonism in HEK293 cells (intracellular calcium, FLIPR)
Type: cell-based
Test Parameters: HEK293 cells permanently transfected with GHS1A-receptor, calcium fluorescence (fluo-4 or Kit-3), EC50 in M, read-out: pEC50 (converted)
Measured Endpoint: EC50 (nM)

{"Molecule": "COc1ccc(C2CCCc3ccccc3C2(O)CCCN)cc1 (racemic)", "Study Target": "GHS1A-receptor (Homo sapiens, UniProt Q92847)", "Measured Endpoint": "EC50", "Relation Operator": "=", "Reported Measurement": 25100}
{"Molecule": "Cc1ccc([C@H]2CCOc3ccccc3[C@]2(O)CCCN(C)Cc2ccccc2)cc1 (racemic)", "Study Target": "GHS1A-receptor (Homo sapiens, UniProt Q92847)", "Measured Endpoint": "EC50", "Relation Operator": "=", "Reported Measurement": 251}
{"Molecule": "COCCN(C)CCCC1(O)c2ccccc2CCCC1c1ccc(F)cc1 (racemic)", "Study Target": "GHS1A-receptor (Homo sapiens, UniProt Q92847)", "Measured Endpoint": "EC50", "Relation Operator": "=", "Reported Measurement": 63.1}
{"Molecule": "COc1ccc(C2CCCc3ccccc3C2(O)CCCN(C)Cc2ccccc2)cc1 (racemic)", "Study Target": "GHS1A-receptor (Homo sapiens, UniProt Q92847)", "Measured Endpoint": "EC50", "Relation Operator": ">", "Reported Measurement": 10000}

---

Each entry below carries its recorded EC50.
Study Target: GHS1A-receptor (Homo sapiens, UniProt Q92847)
Construct: expressed in transfected cells; host or cells: HEK293
Method: Ghrelin-agonism in HEK293 cells (intracellular calcium, FLIPR)
Format: cell-based
Test Parameters: HEK293 cells permanently transfected with GHS1A-receptor, calcium fluorescence (fluo-4 or Kit-3), EC50 in M, read-out: pEC50 (converted)
Measured Endpoint: EC50 (µM)

{"Molecule": "CNCCCC1(O)c2ccccc2CCCC1c1ccc(OC)c(OC)c1 (racemic)", "Measured Endpoint": "EC50", "Relation Operator": "=", "Reported Measurement": 1.58}
{"Molecule": "COc1ccc(C2CCCc3ccccc3C2(O)CCCNCc2ccccc2)cc1 (racemic)", "Measured Endpoint": "EC50", "Relation Operator": ">", "Reported Measurement": 31.6}
{"Molecule": "CN(C)CCCC1(O)c2ccccc2CCCC1c1ccc(F)cc1F (racemic)", "Measured Endpoint": "EC50", "Relation Operator": "=", "Reported Measurement": 0.0251}
{"Molecule": "CNCCCC1(O)c2ccccc2CCCC1c1cccc(C)c1 (racemic)", "Measured Endpoint": "EC50", "Relation Operator": "=", "Reported Measurement": 0.0398}
{"Molecule": "Cc1cccc(C2CCCc3ccccc3C2(O)CCCN(C)Cc2ccccc2)c1 (racemic)", "Measured Endpoint": "EC50", "Relation Operator": "=", "Reported Measurement": 3.98}
{"Molecule": "CCN(CC)CCCC1(O)c2ccccc2OCCC1c1cncc(OC)c1 (racemic)", "Measured Endpoint": "EC50", "Relation Operator": "=", "Reported Measurement": 2}
{"Molecule": "COc1cc(C2CCOc3ccccc3C2(O)CCCN(C)C)ccc1Cl (racemic)", "Measured Endpoint": "EC50", "Relation Operator": "=", "Reported Measurement": 0.0251}
{"Molecule": "CCN(CC)CCCC1(O)c2ccccc2CCCC1c1cccc(Cl)c1 (racemic)", "Measured Endpoint": "EC50", "Relation Operator": "=", "Reported Measurement": 0.00794}
{"Molecule": "Cc1ccc(C2CCOc3ccccc3C2(O)CCCN(C)C)cn1 (racemic)", "Measured Endpoint": "EC50", "Relation Operator": "=", "Reported Measurement": 0.794}
{"Molecule": "COCCN(C)CCCC1(O)c2ccccc2CCCC1c1ccc(O)cc1 (racemic)", "Measured Endpoint": "EC50", "Relation Operator": "=", "Reported Measurement": 2}
{"Molecule": "OC1CCN(CCCC2(O)c3ccccc3CCCC2c2ccc3c(c2)OCO3)C1 (racemic)", "Measured Endpoint": "EC50", "Relation Operator": "=", "Reported Measurement": 1}
{"Molecule": "OC1CCN(CCCC2(O)c3ccccc3CCCC2c2ccc(Cl)cc2)C1 (racemic)", "Measured Endpoint": "EC50", "Relation Operator": "=", "Reported Measurement": 0.0794}
{"Molecule": "CNCCC[C@@]1(O)c2ccccc2OCC[C@@H]1c1ccc(C)cc1", "Measured Endpoint": "EC50", "Relation Operator": "=", "Reported Measurement": 0.398}
{"Molecule": "COCCN(C)CCCC1(O)c2ccccc2CCCC1c1ccc(OC)c(OC)c1 (racemic)", "Measured Endpoint": "EC50", "Relation Operator": "=", "Reported Measurement": 2}
{"Molecule": "CCN(CC)CCCC1(O)c2ccccc2CCCC1c1ccc(F)cc1F (racemic)", "Measured Endpoint": "EC50", "Relation Operator": "=", "Reported Measurement": 0.0316}
{"Molecule": "CCN(CC)CCCC1(O)c2ccccc2CCCC1c1ccc(Cl)c(OC)c1 (racemic)", "Measured Endpoint": "EC50", "Relation Operator": "=", "Reported Measurement": 0.00501}
{"Molecule": "CN(C)CCCC1(O)c2ccccc2CCCC1c1ccccc1 (single isomer, unassigned) [Compound 105]", "Measured Endpoint": "EC50", "Relation Operator": "=", "Reported Measurement": 0.0158}
{"Molecule": "OC1(CCCN2CCCC2)c2ccccc2CCCC1c1ccc(Cl)cc1 (racemic)", "Measured Endpoint": "EC50", "Relation Operator": "=", "Reported Measurement": 0.0316}
{"Molecule": "CN(C)CCCC1(O)c2ccccc2OCCC1c1ccc(F)c(F)c1 (racemic)", "Measured Endpoint": "EC50", "Relation Operator": "=", "Reported Measurement": 0.0501}
{"Molecule": "CNCCCC1(O)c2ccccc2CCCC1c1ccccc1 (racemic)", "Measured Endpoint": "EC50", "Relation Operator": "=", "Reported Measurement": 0.2}
{"Molecule": "Cc1ccc([C@H]2CCCc3ccccc3[C@]2(O)CCCN(C)C)cn1 [Compound 12]", "Measured Endpoint": "EC50", "Relation Operator": "=", "Reported Measurement": 0.251}
{"Molecule": "CCN(CC)CCCC1(O)c2ccccc2CCCC1c1ccc(F)cc1 (racemic)", "Measured Endpoint": "EC50", "Relation Operator": "=", "Reported Measurement": 0.02}
{"Molecule": "CNCCCC1(O)c2ccccc2CCCC1c1ccc(Cl)cc1 (racemic)", "Measured Endpoint": "EC50", "Relation Operator": "=", "Reported Measurement": 0.126}
{"Molecule": "CCN(CC)CCCC1(O)c2ccccc2OCCC1c1ccc(OC)nc1 (racemic)", "Measured Endpoint": "EC50", "Relation Operator": "=", "Reported Measurement": 6.31}
{"Molecule": "CCN(CC)CCCC1(O)c2ccccc2CCCC1c1cccc(OC)c1 (racemic)", "Measured Endpoint": "EC50", "Relation Operator": "=", "Reported Measurement": 0.0251}
{"Molecule": "CN(C)CCCC1(O)c2ccccc2CCCC1c1ccc(F)cc1 (racemic)", "Measured Endpoint": "EC50", "Relation Operator": "=", "Reported Measurement": 0.0126}
{"Molecule": "CCN(CC)CCCC1(O)c2ccccc2CCCC1c1ccc(OC)c(OC)c1 (racemic)", "Measured Endpoint": "EC50", "Relation Operator": "=", "Reported Measurement": 0.398}
{"Molecule": "CN(CCCC1(O)c2ccccc2CCCC1c1ccc(Cl)cc1)Cc1ccccc1 (racemic)", "Measured Endpoint": "EC50", "Relation Operator": "=", "Reported Measurement": 5.01}
